Target: CFTR (Homo sapiens)
Assay: Membrane Potential Dye, Enteroid Assay B
Type: cell-based

compound	Ent. B Max Activity
Cc1cccc(C)c1-c1nc2nc(c1C)OC[C@@H](CC1(C(F)(F)F)CC1)N(C1CC3(CC(CO)C3)C1)C(=O)c1cccc(c1)S(=O)(=O)N2 (stereo partly drawn) [Compound 81]	+++ (+++ is >60%)
Cc1cccc(C)c1-c1nc2nc(c1C)OC[C@@H](CC(C)(C)C)N(C1CC3(CC(N)C3)C1)C(=O)c1cccc(c1)S(=O)(=O)N2 (stereo partly drawn) [Compound 96]	+++ (+++ is >60%)

* * *

Target: CFTR (Homo sapiens, UniProt P13569)
Test: Membrane Potential Dye, Enteroid Assay B
Type: cell-based
Settings: read-out: Ent. B EC50
pEC50: −log10 of the molar value.
endpoint-label: pEC50

For the compound shown here, Cc1cccc(C)c1-c1nc2nc(c1C)OC[C@@H](CC1(C(F)(F)F)CC1)N(C1CC3(CC(N)C3)C1)C(=O)c1cccc(c1)S(=O)(=O)N2 (stereo partly drawn) [Compound 92] , give the reported pEC50.
> 6.00

Any idea what its pEC50 is? The compound is Cc1cccc(C)c1-c1nc2nc(c1C)OCCNC(=O)c1cccc(c1)S(=O)(=O)N2 [Compound 35]
4.52 to 5.52

Report pEC50 for COCCN1CCC2(CC1)CC(N1C(=O)c3cccc(c3)S(=O)(=O)Nc3nc(c(C)c(-c4c(C)cccc4C)n3)OC[C@H]1CC(C)C)C2 [Compound 55] please.
> 6.00

Fill in the blank: the reported pEC50 of COc1ccc(-c2c3nc(nc2-c2c(C)cccc2C)NS(=O)(=O)c2cccc(c2)C(=O)N[C@H](C)CO3)cc1 [Compound 144] is ____.
> 6.00

What does the data say about its pEC50? Entry: Cc1cccc(C)c1-c1nc2nc(c1F)O[C@H](c1ccc(C(C)(C)C)cc1)[C@@H](C)NC(=O)c1cccc(c1)S(=O)(=O)N2 [Compound 167]
> 6.00

Consider the compound CCc1c2nc(nc1-c1c(C)cccc1C)NS(=O)(=O)c1cccc(c1)C(=O)N[C@H](CC(C)(C)C)CO2 [Compound 161] and give its measured pEC50.
> 6.00

* * *

Target: CFTR (Homo sapiens, UniProt P13569)
Test: Membrane Potential Dye, Enteroid Assay B
Type: cell-based
endpoint-label: Ent. B Max Activity

Examples with their reported Ent. B Max Activity follow.
compound	Ent. B Max Activity
Cc1cccc(C)c1-c1nc2nc(c1OC(C)C)OC[C@@H](CC(C)C)N(C1CC3(CCN(C)CC3)C1)C(=O)c1cccc(c1)S(=O)(=O)N2 [Compound 176]	+++ (+++ is >60%)
COC(=O)NC1CC2(C1)CC(N1C(=O)c3cccc(c3)S(=O)(=O)Nc3nc(c(C)c(-c4c(C)cccc4C)n3)OC[C@H]1CC1(C(F)(F)F)CC1)C2 (stereo in doubt) [Compound 88]	+++ (+++ is >60%)
Cc1cccc(C)c1-c1nc2nc(c1-c1cccnc1)OC[C@@H](C)NC(=O)c1cccc(c1)S(=O)(=O)N2 [Compound 143]	+ (+ is <30%)
COC(=O)NC1CC2(C1)CC(N1C(=O)c3cccc(c3)S(=O)(=O)Nc3nc(c(C)c(-c4c(C)cccc4C)n3)OC[C@H]1CC1(C(F)(F)F)CC1)C2 (stereo in doubt) [Compound 86]	+++ (+++ is >60%)

Hi! What's the reported Ent. B Max Activity for Cc1cccc(C)c1-c1nc2nc(c1C)OCCCNC(=O)c1cccc(c1)S(=O)(=O)N2 [Compound 36] on CFTR (Homo sapiens, UniProt P13569)?
+ (+ is <30%)

* * *

Could you please report measured EC50 for the items listed next?
Target: CFTR (Homo sapiens, UniProt P13569, DEL508-508)
Construct: endogenous in cells; host or cells: primary human bronchial epithelial cells, F508del/MF genotype
Sequence (P13569 with tags, fused parts or gaps DEL508-508): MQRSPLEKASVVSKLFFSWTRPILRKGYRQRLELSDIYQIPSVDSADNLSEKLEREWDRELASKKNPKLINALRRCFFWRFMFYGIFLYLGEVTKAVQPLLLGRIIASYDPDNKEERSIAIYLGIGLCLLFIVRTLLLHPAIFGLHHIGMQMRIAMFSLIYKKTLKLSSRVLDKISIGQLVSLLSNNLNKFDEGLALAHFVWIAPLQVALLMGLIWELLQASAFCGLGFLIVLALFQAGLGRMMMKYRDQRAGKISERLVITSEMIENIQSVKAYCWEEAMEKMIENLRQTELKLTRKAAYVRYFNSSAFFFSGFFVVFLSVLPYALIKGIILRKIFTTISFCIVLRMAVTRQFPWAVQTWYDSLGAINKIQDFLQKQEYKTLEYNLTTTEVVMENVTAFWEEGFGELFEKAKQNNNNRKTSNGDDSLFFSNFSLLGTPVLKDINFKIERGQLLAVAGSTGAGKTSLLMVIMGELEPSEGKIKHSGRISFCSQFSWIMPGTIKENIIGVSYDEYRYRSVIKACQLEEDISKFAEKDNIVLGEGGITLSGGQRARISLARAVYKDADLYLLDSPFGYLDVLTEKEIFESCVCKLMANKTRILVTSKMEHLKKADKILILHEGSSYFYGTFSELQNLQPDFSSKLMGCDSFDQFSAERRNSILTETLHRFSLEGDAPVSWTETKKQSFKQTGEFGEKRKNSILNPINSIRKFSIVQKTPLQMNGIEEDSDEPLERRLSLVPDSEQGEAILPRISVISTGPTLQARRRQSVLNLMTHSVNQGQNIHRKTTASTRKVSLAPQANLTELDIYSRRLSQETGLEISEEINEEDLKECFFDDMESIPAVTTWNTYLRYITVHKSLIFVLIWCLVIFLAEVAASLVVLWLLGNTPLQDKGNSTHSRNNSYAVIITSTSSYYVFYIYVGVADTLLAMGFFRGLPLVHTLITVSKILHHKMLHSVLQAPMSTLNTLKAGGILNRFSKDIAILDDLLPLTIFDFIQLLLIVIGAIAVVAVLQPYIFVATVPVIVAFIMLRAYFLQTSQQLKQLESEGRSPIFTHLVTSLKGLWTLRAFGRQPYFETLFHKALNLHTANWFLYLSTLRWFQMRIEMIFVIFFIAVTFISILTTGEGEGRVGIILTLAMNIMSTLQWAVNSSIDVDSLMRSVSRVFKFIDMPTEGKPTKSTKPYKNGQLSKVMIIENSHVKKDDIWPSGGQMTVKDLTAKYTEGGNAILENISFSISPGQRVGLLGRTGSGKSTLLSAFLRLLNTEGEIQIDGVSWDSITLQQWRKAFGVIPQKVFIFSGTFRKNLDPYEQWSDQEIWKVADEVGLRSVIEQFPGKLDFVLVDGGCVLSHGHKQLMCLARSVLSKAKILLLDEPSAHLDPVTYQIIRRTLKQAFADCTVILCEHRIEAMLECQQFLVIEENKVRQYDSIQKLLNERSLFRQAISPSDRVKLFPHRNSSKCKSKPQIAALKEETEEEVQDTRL
Experiment: HBE Assay: Ussing chamber assay of CFTR-mediated short-circuit currents in F508del/MF-HBE cells with 1 μM Ivacaftor
Type: cell-based
Settings: with 1 μM Ivacaftor, 18-24 hours, 20% human serum
Protocol: Ussing chamber experiments were performed using human bronchial epithelial (HBE) cells derived from CF subjects heterozygous for F508del and a minimal function CFTR mutation (F508del/MF-HBE) and cultured as previously described (Neuberger T, Burton B, Clark H, Van Goor F Methods Mol Biol 2011:741:39-54). […] The activity of the CFTR corrector compounds on the CFTR-mediated ISC was determined in Ussing chamber studies as described above. […]

May I ask what EC50 has been recorded for Cc1cccc(CC2CCCCC2)c1-c1nc2nc(c1C)OC[C@@H](CC(C)(C)C)N(Cc1ncc(N(C)CC(C)(C)C)cn1)C(=O)c1cccc(c1)S(=O)(=O)N2 (atropisomer, axis not shown) ?
1 to 3 µM

Entry under review: Cc1cccc(CC2CCCCC2)c1-c1nc2nc(c1C)OC[C@@H](CC(C)(C)C)N(Cc1ncc(OC(C)C)cn1)C(=O)c1cccc(c1)S(=O)(=O)N2 . Reported EC50?
< 1 µM

Please look up its EC50: Cc1cccc(CC2CCCCC2)c1-c1nc2nc(c1C)OC[C@@H](CC(C)(C)C)N(Cc1nccc(N(C)C(C)C)n1)C(=O)c1cccc(c1)S(=O)(=O)N2 (atropisomer, axis not shown)
< 1 µM

Item Cc1cccc(CC2CCCCC2)c1-c1nc2nc(c1C)OC[C@@H](CC(C)(C)C)N(Cc1ccc(N3CCCCC3)cn1)C(=O)c1cccc(c1)S(=O)(=O)N2 (atropisomer, axis not shown) [Compound 308] has what recorded EC50?
< 1 µM

I have this molecule here, COCCN(C)c1cnc(CN2C(=O)c3cccc(c3)S(=O)(=O)Nc3nc(c(C)c(-c4c(C)cccc4CC4CCCCC4)n3)OC[C@H]2CC(C)(C)C)cn1 , and I need its recorded EC50.
1 to 3 µM

Consider the molecule shown here: Cc1cccc(C)c1-c1nc2nc(c1C)OC[C@@H](CC(C)C)N(Cc1ncc(OC(C)C)cn1)C(=O)c1cccc(c1)S(=O)(=O)N2 What is its recorded EC50?
< 1 µM

Value lookup for EC50; key = Cc1cccc(CC2CCCC2)c1-c1nc2nc(c1C)OC[C@@H](CC(C)(C)C)N(Cc1ccc(N3CCOCC3)cn1)C(=O)c1cccc(c1)S(=O)(=O)N2 (atropisomer, axis not shown)
< 1 µM

Returns the measured EC50 for the input molecule. Input: Cc1cccc(CC2CCCCC2)c1-c1nc2nc(c1C)OC[C@@H](CC(C)(C)C)N(Cc1ccc(N3CCOCC3)cn1)C(=O)c1cccc(c1)S(=O)(=O)N2 (single isomer, unassigned) [Compound 207]
< 1 µM

* * *

Target: UniProtKB P13569
Assay: Membrane Potential Dye, Enteroid Assay B
Assay type: cell-based
Conditions: read-out: Ent. B EC50
endpoint-label: EC50

Quick one: EC50 for Cc1cccc(C)c1-c1nc2nc(c1C1CCN(C(=O)OC(C)(C)C)CC1)O[C@H](C)CNC(=O)c1cccc(c1)S(=O)(=O)N2 ?
1 to 3 µM

Which EC50 is reported for this compound? COC1CC(N2C(=O)c3cccc(c3)S(=O)(=O)Nc3nc(c(C)c(-c4c(C)cccc4C)n3)OC[C@H]2CC2(C(F)(F)F)CC2)C1 (stereo partly drawn) [Compound 99]
< 1 µM

I have this compound here, COc1cccc(-c2c3nc(nc2-c2c(C)cccc2C)NS(=O)(=O)c2cccc(c2)C(=O)NC[C@@H](C)O3)c1 , and I need its recorded EC50.
< 1 µM

* * *

Biological target: CFTR (Homo sapiens, UniProt P13569, DEL508-508)
Construct: endogenous in cells; host or cells: primary human bronchial epithelial cells, F508del/MF genotype
Assay: HBE Assay: Ussing chamber assay of CFTR-mediated short-circuit currents in F508del/MF-HBE cells with 1 μM Ivacaftor
Type: cell-based
Conditions: with 1 μM Ivacaftor, 18-24 hours, 20% human serum
Can you tell me EC50 for the items I'm about to list?

# get_value(readout='EC50', item= Cc1cccc(CC(C)C)c1-c1nc2nc(c1C)OC[C@@H](C(C)C)N(Cc1ncc(N3CCC(C)(C)C3)cn1)C(=O)c1cccc(c1)S(=O)(=O)N2 [Compound 240] )
1000 to 3000 nM

Name the reported EC50 value associated with the compound Cc1cccc(CC(C)C)c1-c1nc2nc(c1C)OC[C@@H](CC(C)(C)C)N(Cc1ncc(N(C)C)cn1)C(=O)c1cccc(c1)S(=O)(=O)N2 (atropisomer, axis not shown) [Compound 236]
< 1000 nM

Requested read-out: EC50. Entry: Cc1cccc(CC2CCCCC2)c1-c1nc2nc(c1C)OC[C@@H](CC(C)(C)C)N(Cc1cccc(N(C)CC(C)(C)C)n1)C(=O)c1cccc(c1)S(=O)(=O)N2 (atropisomer, axis not shown) [Compound 259]
< 1000 nM

Data request, read-out EC50, for Cc1c2nc(nc1-c1ccccc1C(C)C)NS(=O)(=O)c1cccc(c1)C(=O)N(Cc1ncc(N3CCOCC3)cn1)[C@H](CC(C)(C)C)CO2 [Compound 173]
< 1000 nM

Would you kindly share the measured EC50 for Cc1cccc(C)c1-c1nc2nc(c1C)OC[C@@H](CC(C)(C)C)N(Cc1ccc(N3CCCCC3)cn1)C(=O)c1cccc(c1)S(=O)(=O)N2 [Compound 85] ?
< 1000 nM
